All figures here come from the supplement of paper PMC8728848.

Measured glycan array binding signal (z-score), listed per entry.
- targetEntity: Fuc(b1-3)GlcNAc
- testSummary: glycan array binding signal (z-score within array); higher = stronger binding
- conditionDescription: glycan notation: IUPAC condensed, linker removed
Many of the other results were omitted from the sample, so the strongest signals are more common in it than they were.
Lab note: record the figure alone, no unit after it.

Examples with their reported glycan array binding signal (z-score) follow.
| binder | reported |
| --- | --- |
| BC2L-D C-terminal domain (Burkholderia cenocepacia), Q39MQ9_BURS3 (protein) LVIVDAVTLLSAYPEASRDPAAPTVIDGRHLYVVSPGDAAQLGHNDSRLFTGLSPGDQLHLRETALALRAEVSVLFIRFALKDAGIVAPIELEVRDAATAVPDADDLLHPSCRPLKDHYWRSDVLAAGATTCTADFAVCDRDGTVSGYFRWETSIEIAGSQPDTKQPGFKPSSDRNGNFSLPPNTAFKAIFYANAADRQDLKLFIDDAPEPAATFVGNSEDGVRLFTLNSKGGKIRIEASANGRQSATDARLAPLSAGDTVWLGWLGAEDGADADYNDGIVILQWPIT | -0.241 |
| Ecp6 (Cladosporium fulvum), B3VBK9 (protein) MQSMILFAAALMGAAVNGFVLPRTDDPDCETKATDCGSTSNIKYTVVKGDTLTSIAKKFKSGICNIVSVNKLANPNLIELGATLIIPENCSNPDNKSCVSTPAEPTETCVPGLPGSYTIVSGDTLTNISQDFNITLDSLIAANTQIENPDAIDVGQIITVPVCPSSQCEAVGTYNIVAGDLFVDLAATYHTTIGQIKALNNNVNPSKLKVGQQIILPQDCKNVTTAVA | -0.083 |

# evaluate next
Query string: What value of glycan array binding signal (z-score) has been recorded for this entry: Epa6 (Candida glabrata), Q6DTM7_CANGB (protein) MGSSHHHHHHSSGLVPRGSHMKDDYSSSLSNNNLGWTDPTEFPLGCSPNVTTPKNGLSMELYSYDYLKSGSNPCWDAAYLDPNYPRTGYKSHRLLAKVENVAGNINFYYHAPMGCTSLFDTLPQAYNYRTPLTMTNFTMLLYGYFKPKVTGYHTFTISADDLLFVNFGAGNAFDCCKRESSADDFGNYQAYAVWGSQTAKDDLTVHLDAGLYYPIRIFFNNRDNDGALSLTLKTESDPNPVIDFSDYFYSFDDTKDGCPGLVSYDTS
Result string: -0.331
